- System: A549 NSCLC
- assay notes: NCI tumour cell line growth inhibition, 48 h; in the data active = GI50 below about 0.43 µM; inactive = the rest
Possible outcomes: Yes for active, No for inactive

1) COc1cc(N)c(Cl)cc1C(=O)N[C@@H]1CCN(CCCOc2ccc(F)cc2)C[C@@H]1OC | No
2) COc1c(OC2OC(C)C(O)C(O)C2O)c(OC)c2oc(-c3ccc(O)cc3)cc(=O)c2c1O (stereo not given) | No
3) O=C(OCC1=CC(=O)c2ccccc2C1=O)c1ccccc1 | No
4) COc1ccc2c(CN3CCCC[C@H]3O)cc3cc4c(cc3c2c1)OCO4 | Yes
5) COc1ccc(CN2c3ccccc3Sc3ccccc32)cc1O | No
6) COc1ccc(/C=C(\C#N)c2cc(OC)c(OC)c(OC)c2)cc1 | Yes
7) N#C/C(=C/C=C/c1cccc(Cl)c1)S(=O)c1ccccc1 (stereo not given) | No
8) C=C(CN1CCc2ccccc2C1)c1ccc(CCCC(=O)Nc2ccccc2N)cc1 | No
9) O=C(NCc1cn(Cc2cccc(Oc3ccccc3)c2)nn1)c1cccnc1NCc1ccc(Cl)cc1 | No
10) Cn1cc(-c2csc(-c3ccc(Cl)cc3)n2)c2cccnc21 | No
11) N.N.N.N.O=S([O-])[O-].[Co+3].[N-]=[N+]=[N-] | No
12) COC1CCC(OC)C(c2nc3sccn3c2/C=N/N=C(N)N)C1 (stereo not given) | No
13) COc1ccc(N=c2nc3sc4cc(Cl)ccc4n3c(N)c2C#N)cc1 | No
14) CC(C)(O)c1cc(Nc2cc(Oc3cn(C4CC4)nc3C3CCOCC3)ccn2)ccn1 | No
15) CCCCC[C@H]1C/C=C2/C(=O)C=C[C@@H]2C/C=C\CCCC(=O)O1 | Yes
